Provenance of the data: patent US20230086702A1

TARGET_DESC: LZK (Homo sapiens, UniProt O43283)
Construct: 10 nM LZK, catalytic domain, Carna Biosiences in assay buffer; purchased Carna Biosciences ('Carna Biosiences' [sic])
Sequence (O43283 168-409 limits assumed): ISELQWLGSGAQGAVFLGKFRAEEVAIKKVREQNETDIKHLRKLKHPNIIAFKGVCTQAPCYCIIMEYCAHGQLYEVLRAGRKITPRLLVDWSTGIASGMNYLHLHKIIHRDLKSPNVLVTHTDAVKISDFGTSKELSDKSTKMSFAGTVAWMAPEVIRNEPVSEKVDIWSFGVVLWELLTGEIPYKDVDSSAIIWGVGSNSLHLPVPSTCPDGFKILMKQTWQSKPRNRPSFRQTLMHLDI
PROTOCOL: LZK biochemical assay (TR-FRET, MKK7 phosphorylation)
EXPERIMENTAL_CONTEXT: LZK catalytic domain, MKK7 substrate, 15 μM ATP
Below is a list of entries, each paired with its recorded IC50 value.
Quick reminder: number only, in nM, skip the unit.

The following molecules have reported results that may help.
CC[C@H](C)NC(=O)c1cc(-c2cnn(C(c3ccc(C(F)(F)F)nc3)C(C)C)c2)cn2nc(N)nc12 (mixture of isomers) [Example I-73]	5.8
CCC(c1ccc(C(F)(F)F)nc1)n1cc(-c2cc(C(=O)NC(C)(C)CO)c3nc(N)nn3c2)cn1 (racemic) [Example I-163]	30
CCC(c1ccc(N2CCOCC2)cc1)n1cc(-c2cc(C(=O)N[C@@H](C)CC)c3nc(N)nn3c2)cn1 (single isomer, unassigned) [Example I-49]	17
CCC(c1ccc(OCC(F)(F)F)nc1)n1cc(-c2cc(C(=O)N[C@@H](C)CC)c3nc(N)nn3c2)cn1 (single isomer, unassigned) [Example I-86]	160
CC[C@H](C)NC(=O)c1cc(-c2cnn(C3CCN(C4COC4)CC3)c2)cn2nc(N)nc12 (single isomer, unassigned) [Example I-8]	9.4

Next molecule, IC50 to be filled in.
In one line, give reported IC50 of the entry CC[C@H](C)NC(=O)c1cc(-c2cnn(C(c3ccc(C(F)(F)F)nc3)C3CCOCC3)c2)cn2nc(N)nc12 (single isomer, unassigned) [Example I-77] . 6.9

====

TARGET_DESC: DLK (Homo sapiens, UniProt Q12852)
Construct: 10 nM DLK, catalytic domain, Carna Biosiences; purchased Carna Biosciences ('Carna Biosiences' [sic])
Sequence (Q12852 125-366 limits assumed): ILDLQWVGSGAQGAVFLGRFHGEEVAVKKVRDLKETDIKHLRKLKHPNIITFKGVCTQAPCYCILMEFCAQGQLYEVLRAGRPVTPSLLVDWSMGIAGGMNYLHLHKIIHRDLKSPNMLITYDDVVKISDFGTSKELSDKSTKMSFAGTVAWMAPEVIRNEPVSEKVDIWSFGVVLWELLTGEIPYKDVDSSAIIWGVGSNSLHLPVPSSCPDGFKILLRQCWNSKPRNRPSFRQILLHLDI
PROTOCOL: DLK biochemical assay (TR-FRET, MKK7 phosphorylation)
Procedure: DLK assay is a biochemical assay format designed to screen for inhibitors of DLK. Enzymatic activity of DLK is measured by monitoring phosphorylation of the physiological substrate MKK7 (MAP2K7, Dual specificity mitogen-activated protein kinase kinase 7). Phosphorylation is detected by a TR-FRET system whereby His-tagged MKK7 is labeled by a XL665-labeled anti-His antibody (FRET acceptor, emission 665 nm). […]
Below is a list of entries, each paired with its recorded pIC50 value.
Convention used: pIC50 is expressed as -log10 of the molar concentration.

The following molecules have reported results that may help.
Nc1nc2c(-c3cnn(CC(F)(F)F)c3)cc(-c3cnn(C(c4ccc(C(F)(F)F)nc4)C4CCOCC4)c3)cn2n1 (single isomer, unassigned) [II-118]	9.22
CC(C)C(c1ccc(C(F)(F)F)nc1)n1cc(-c2cc(-c3ccc(C4CC4)nc3)n3nc(N)nc3c2)cn1 (single isomer, unassigned) [II-59]	7.04

Next molecule, pIC50 to be filled in.
In one line, give reported pIC50 of the entry CCc1nnc(-c2cc(-c3cnn(Cc4ccccc4)c3)cn3nc(N)nc23)s1 . 6.62

====

TARGET_DESC: LZK (Homo sapiens)
Construct: 10 nM LZK, catalytic domain, Carna Biosiences in assay buffer; purchased Carna Biosciences ('Carna Biosiences' [sic])
PROTOCOL: LZK biochemical assay (TR-FRET, MKK7 phosphorylation)
EXPERIMENTAL_CONTEXT: LZK catalytic domain, MKK7 substrate, 15 μM ATP
The label is satisfied for IC50 below 30 nM and not satisfied for IC50 equal to or exceeding 30 nM.

CC(C)(CO)NC(=O)c1cc(-c2cnn(C(c3ccc(C(F)(F)F)nc3)C3CCOCC3)c2)cn2nc(N)nc12 (single isomer, unassigned) [Example I-168]	satisfied

Dear reviewer, please state whether CC(C)C(c1cncc(Cl)c1)n1cc(-c2cc(C(=O)NC(C)(C)CO)c3nc(N)nn3c2)cn1 (single isomer, unassigned) [Example I-174] has IC50 strictly beneath 30 nM. not satisfied

Dear reviewer, please state whether CC[C@H](C)NC(=O)c1cc(-c2cnn(C(c3ccc(C(F)(F)F)nc3)C3CCOCC3)c2)cc2nc(N)nn12 (single isomer, unassigned) [Example I-111] has IC50 strictly beneath 30 nM. satisfied

Dear reviewer, please state whether CC[C@@H](NC(=O)c1cc(-c2cnn(Cc3ccccc3)c2)cn2nc(N)nc12)C(F)(F)F (single isomer, unassigned) has IC50 strictly beneath 30 nM. not satisfied

Dear reviewer, please state whether CCC(c1ccc(F)cn1)n1cc(-c2cc(C(=O)N[C@@H](C)CC)c3nc(N)nn3c2)cn1 (mixture of isomers) [Example I-55] has IC50 strictly beneath 30 nM. not satisfied

Dear reviewer, please state whether CCC(c1ccc(F)cn1)n1cc(-c2cc(C(=O)N[C@@H](C)CC)c3nc(N)nn3c2)cn1 (single isomer, unassigned) [Example I-57] has IC50 strictly beneath 30 nM. not satisfied

Dear reviewer, please state whether CC[C@H](C)NC(=O)c1cc(-c2cnn(C3CCCc4cccnc43)c2)cc2nc(N)nn12 (mixture of isomers) has IC50 strictly beneath 30 nM. satisfied

Dear reviewer, please state whether CC[C@H](C)NC(=O)c1cc(-c2cnn(C(c3ccc(OCC(F)(F)F)nc3)C(C)C)c2)cc2nc(N)nn12 (single isomer, unassigned) [Example I-118] has IC50 strictly beneath 30 nM. satisfied

====

TARGET_DESC: LZK (Homo sapiens)
Construct: 10 nM LZK, catalytic domain, Carna Biosiences in assay buffer; purchased Carna Biosciences ('Carna Biosiences' [sic])
PROTOCOL: LZK biochemical assay (TR-FRET, MKK7 phosphorylation)
EXPERIMENTAL_CONTEXT: LZK catalytic domain, MKK7 substrate, 15 μM ATP
The label is yes for IC50 below 80 nM and no for IC50 equal to or exceeding 80 nM.

Look over these answered cases.
CC[C@H](C)NC(=O)c1cc(-c2cnn(C3CCCc4cnccc43)c2)cc2nc(N)nn12 (mixture of isomers)	yes
CC[C@H](C)NC(=O)c1cc(-c2cnn(C(c3cncc(Cl)c3)C(C)C)c2)cn2nc(N)nc12 (single isomer, unassigned) [Example I-62]	yes
CC(CF)NC(=O)c1cc(-c2cnn(C3CCOc4ccccc43)c2)cn2nc(N)nc12 (single isomer, unassigned) [Example I-146]	no

Okay, next one:
Dear reviewer, please state whether CCC(c1ccc(C(F)(F)F)nc1)n1cc(-c2cc(C(=O)N[C@H]3CCOC3)n3nc(N)nc3c2)cn1 (mixture of isomers) [Example I-177] has IC50 strictly beneath 80 nM. yes

====

Below is a list of entries, each paired with its recorded log10 IC50 value.
TARGET_DESC: DLK (Homo sapiens)
Construct: 10 nM DLK, catalytic domain, Carna Biosiences; purchased Carna Biosciences ('Carna Biosiences' [sic])
PROTOCOL: DLK biochemical assay (TR-FRET, MKK7 phosphorylation)
EXPERIMENTAL_CONTEXT: DLK catalytic domain, MKK7 substrate, 60 μM ATP
Recall that a logarithmic scale is used here: each number is log10 of IC50 in nM.

The following compounds have reported results that may help.
CC(C)C(c1cncc(Cl)c1)n1cc(-c2cc(C(=O)NC(C)(C)CO)c3nc(N)nn3c2)cn1 (racemic) [Example I-172]	0.60
CCC(c1ccc(C(F)(F)F)nc1)n1cc(-c2cc(C(=O)NC(C)(C)CO)c3nc(N)nn3c2)cn1 (racemic) [Example I-163]	0.88

Next compound, log10 IC50 to be filled in.
In one line, give reported log10 IC50 of the entry CC[C@H](C)NC(=O)c1cc(-c2cnn(C3CCN(C(C)=O)CC3)c2)cn2nc(N)nc12 (single isomer, unassigned) . 1.91

====

TARGET_DESC: LZK (Homo sapiens, UniProt O43283)
Construct: 10 nM LZK, catalytic domain, Carna Biosiences in assay buffer; purchased Carna Biosciences ('Carna Biosiences' [sic])
PROTOCOL: LZK biochemical assay (TR-FRET, MKK7 phosphorylation)
Below is a list of entries, each paired with its recorded pIC50 value.
Convention used: pIC50 is expressed as -log10 of the molar concentration.

The following compounds have reported results that may help.
CCC(c1ccc(C(F)F)nc1)n1cc(-c2cc(-c3ccc(C4CC4)nc3)n3nc(N)nc3c2)cn1 (single isomer, unassigned) [II-69]	8.03
CC(C)C(c1ccc(C(F)(F)F)nc1)n1cc(-c2cc(-c3ccc(C4CC4)nc3)n3nc(N)nc3c2)cn1 (single isomer, unassigned) [II-59]	6.72
Nc1nc2cc(-c3cnn(C(c4ccc(C(F)F)nc4)C4CCOCC4)c3)cc(-c3ccc(C(F)(F)F)nc3)n2n1 (single isomer, unassigned) [II-78]	8.28

In one line, give reported pIC50 of the entry CCC(c1ccc(C(F)(F)F)cc1)n1cc(-c2cc(-c3cnn(C4CCCC4)c3)n3nc(N)nc3c2)cn1 (single isomer, unassigned) [II-133] . 6.89

In one line, give reported pIC50 of the entry CCC(c1ccc(N2CCOCC2)cc1)n1cc(-c2cc(-c3cnn(CC(F)(F)F)c3)c3nc(N)nn3c2)cn1 (single isomer, unassigned) [II-103] . 6.80

In one line, give reported pIC50 of the entry Nc1nc2cc(-c3cnn(C(c4ccc(C(F)(F)F)nc4)C4CCOCC4)c3)cc(-c3ccnc(C(F)(F)F)c3)n2n1 (single isomer, unassigned) [II-35] . 7.36
